Assay: qHTS assay to identify small molecule antagonists of the androgen receptor (AR) signaling pathway - cell viability counter screen (AID 743033; also: nearly all actives have a fitted effect of over 45% in size)
Conditions: AR-bla HEK293 viability, CellTiter-Glo luminescence, 16 h; series mostly up to 58.5 µM
Inconclusive results are not listed. Calls of active or inactive are those of the source. Calls follow the shape of the dose curve; as a rule, active = well fitted cell-killing curve with a large enough effect in the repeat runs; inconclusive = weak or mixed curves; inactive = no such curve, though single readings can be large or run the other way.
Use one of these outcomes when replying: YES for active, NO for inactive

In this assay, the call recorded for CCCCCCCCCCCCCCCCCC[N+](C)(C)C was what? YES

In this assay, the call recorded for NNc1nc(-c2ccc(N)cc2)cs1 was what? NO

In this assay, the call recorded for CC(C)(C)c1ccc(C(=O)O)cc1 was what? NO

In this assay, the call recorded for O=C(O)c1ccc(Cl)c(Cl)c1 was what? NO

In this assay, the call recorded for CN(C)C(=O)C1(N2CCCCC2)CCN(CC[C@@]2(c3ccc(Cl)c(Cl)c3)CN(C(=O)c3ccccc3)CCO2)CC1 was what? YES

More entries:
In this assay, the call recorded for CCCCCCCCCCCCCCCS(=O)(=O)Oc1ccccc1 was what? NO

====

Assay: qHTS assay to identify small molecule agonists of the AP-1 signaling pathway - cell viability counter screen (AID 1159525); also: nearly all actives have a fitted effect of over 55% in size
Details: ME-180 (cervical carcinoma) AP-1-bla cells viability, ATP luminescence, 5 h; series mostly up to 76.8 µM
Records with an inconclusive call do not appear. Active and inactive are the calls of the source. Calls follow the shape of the full dose curve.
Use one of these outcomes when replying: active, inactive

In this assay, the call recorded for Cc1ccc2oc(CN(Cc3ccccc3)C(=O)Nc3c(F)cc(F)cc3F)c(-c3ccc(Cl)cc3)c2c1 was what? inactive

In this assay, the call recorded for CC/C(=C(\c1ccc(O)cc1)c1ccc(OCCN(C)C)cc1)c1ccccc1 was what? active

In this assay, the call recorded for CC(C)(C)CC(C)(C)c1ccc(O)c(Cc2ccc(Cl)cc2Cl)c1 was what? active

In this assay, the call recorded for O=[N+]([O-])c1cc([N+](=O)[O-])c2ccc(S(=O)(=O)O)cc2c1O was what? inactive

# input for lookup
In this assay, the call recorded for O=S1(=O)CC(Cl)(Cl)C(Cl)(Cl)C1 was what? active

====

Experiment: qHTS RealTime-Glo MT Cell Viability Assay in HepG2 cells - 8 hour (AID 1224873); also: nearly all actives have a fitted effect of over 55% in size; also: potency is read from the fitted curve at half-maximal effect
Settings: RealTime-Glo luminescence; series mostly up to 76.8 µM
Inconclusive results are not listed. Activity calls are given as the source filed them. The call rests on the fitted dose curve; in most records, active means well fitted cell-killing curve with a large enough effect in the repeat runs; inconclusive means weak or mixed curves; inactive means flat fitted curve, though single readings scatter.
ENDPOINT: Potency

Some compounds with known Potency results, for comparison:
Any idea what Potency was measured for NNc1nc(-c2ccc(N)cc2)cs1 ? inactive

Any idea what Potency was measured for COc1cc(-c2ccc(N=C=O)c(OC)c2)ccc1N=C=O ? inactive

Any idea what Potency was measured for O=C(Nc1cccc(C(F)(F)F)c1)c1cc(Br)cc(Br)c1O ? inactive

Any idea what Potency was measured for Fc1ccc([C@@H]2CCNC[C@H]2COc2ccc3c(c2)OCO3)cc1 ? inactive

More entries:
Any idea what Potency was measured for CCN(C(=O)N(CC)c1ccccc1)c1ccccc1 ? inactive

Any idea what Potency was measured for CCCCCCCCCCCC[N+](C)(C)CCCCCCCCCCCC ? 12.3 µM (active)

====

Assay: A CellTox Green Cytotoxicity Assay to monitor cytotoxicity in HepG2 cells - 40 hour (AID 1224879); also: nearly all actives have a fitted effect of over 40% in size; also: potency is read from the fitted curve at half-maximal effect
Conditions: CellTox Green fluorescence; series mostly up to 76.8 µM
Excerpt: National Center for Advancing Translational Sciences [NCATS] NIH Chemical Genomics Center [NCGC] U.S. Environmental Protection Agency [EPA] National Institutes of Environmental Health Sciences [NIEHS] National Toxicology Program [NTP] Cell-based models are critical for drug discovery. […] Viable cells produce no appreciable increases in fluorescence. Therefore, the fluorescence signal produced by the binding interaction with dead cell DNA is proportional to cytotoxicity. […]
Results filed as inconclusive are left out. Activity calls are given as the source filed them. The call rests on the fitted dose curve; in most records, active means well fitted activation curve with a large enough effect in the repeat runs; inconclusive means weak or mixed curves; inactive means flat fitted curve, though single readings scatter.
ENDPOINT: Potency

Some compounds with known Potency results, for comparison:
Any idea what Potency was measured for Cc1onc(-c2ccccc2Cl)c1C(=O)N[C@@H]1C(=O)N2[C@@H]1SC(C)(C)[C@@H]2C(=O)O ? inactive

Any idea what Potency was measured for CCCCCCCCCCCCc1ccc(O)cc1 ? 19.5 µM (active)

Any idea what Potency was measured for C=C(C)C(=O)OCC[N+](C)(C)C ? inactive

Any idea what Potency was measured for O=CC=C(c1ccccc1)c1ccccc1 ? inactive

Any idea what Potency was measured for O=c1cc(-c2ccc(O)cc2)oc2cc(O)cc(O)c12 ? 38.9 µM (active)

More entries:
Any idea what Potency was measured for CCOc1nc2cccc(C(=O)OC(C)OC(=O)OC3CCCCC3)c2n1Cc1ccc(-c2ccccc2-c2nn[nH]n2)cc1 (stereo unspecified) ? 43.6 µM (active)

====

Experiment: qHTS assay to identify small molecule agonists of the estrogen receptor alpha (ER-alpha) signaling pathway in the presence of an antagonist - cell viability counter screen (AID 1259386);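 also: cells exposed to compounds for 22 h at 37 °C before the viability read; nearly all actives have a fitted effect of over 30% in size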
Settings: VM7Luc4E2 viability, CellTiter-Fluor fluorescence, 22 h; series mostly up to 92.4 µM
Results filed as inconclusive are left out. Activity calls are given as the source filed them. The call rests on the fitted dose curve; in most records, active means well fitted cell-killing curve with a large enough effect in the repeat runs; inconclusive means weak or mixed curves, or effect the other way; inactive means no such curve, though single readings can be large or run the other way.
Use one of these outcomes when replying: 1.0 (active), 0.0 (inactive)

Examples with answers:
In this assay, the call recorded for CCCN(CCC)C(=O)C(CCC(=O)OCCCN1CCN(CCOC(=O)Cc2c(C)n(C(=O)c3ccc(Cl)cc3)c3ccc(OC)cc23)CC1)NC(=O)c1ccccc1 (configuration not stated) was what? 1.0

In this assay, the call recorded for C1CCCC1 was what? 0.0

In this assay, the call recorded for c1ccc(CSCc2ccccc2)cc1 was what? 0.0

More entries:
In this assay, the call recorded for CCN(C(=O)N(CC)c1ccccc1)c1ccccc1 was what? 0.0

In this assay, the call recorded for NC(=O)N1C(=O)C(C(=O)c2cc(Cl)cs2)c2cc(F)c(Cl)cc21 (configuration not stated) was what? 1.0

In this assay, the call recorded for C[C@H](CCC(=O)O)[C@H]1CC[C@H]2[C@@H]3CC[C@@H]4C[C@H](O)CC[C@]4(C)[C@H]3CC[C@]12C was what? 0.0

In this assay, the call recorded for c1cc(C(c2ccc(OCC3CO3)cc2)c2ccc(OCC3CO3)cc2)ccc1OCC1CO1 (configuration not stated) was what? 0.0

In this assay, the call recorded for CCc1oc2ccccc2c1C(=O)c1cc(Br)c(O)c(Br)c1 was what? 0.0

In this assay, the call recorded for CCCCCCCCOc1ccccc1C(=O)Nc1ccc(C(=O)OCC[N+](C)(CC)CC)cc1 was what? 0.0

In this assay, the call recorded for O=[N+]([O-])c1cc([N+](=O)[O-])c2ccc(S(=O)(=O)O)cc2c1O was what? 1.0

In this assay, the call recorded for CCCCC(CC)CN=C(N)NC(N)=NCCCCCCN=C(N)NC(N)=NCC(CC)CCCC (configuration not stated) was what? 1.0

In this assay, the call recorded for CC(C)(C)C(=O)OCOC(=O)[C@@H]1N2C(=O)[C@@H](NC(=O)[C@H](N)c3ccccc3)[C@H]2SC1(C)C was what? 0.0

In this assay, the call recorded for CCCCCCCC/C=C\CCCCCCCCOCCO was what? 1.0

In this assay, the call recorded for Cc1cc2c(cc1C(F)(F)F)N(C(=O)Nc1ccc(Oc3cccnc3C)nc1)CC2 was what? 0.0

In this assay, the call recorded for CC(C)C(C)(C)C(C)(C)C(C)(C)S was what? 0.0

====

Experiment: qHTS assay to identify small molecule antagonists of the androgen receptor (AR) signaling pathway using the MDA cell line in the presence of 0.5 nM R1881 - cell viability counter screen (AID 1259242); also: nearly all actives have a fitted effect of over 45% in size; also: potency is read from the fitted curve at half-maximal effect
Conditions: MDA-kb2 viability, CellTiter-Fluor protease fluorescence, 16 h; series mostly up to 92.4 µM
Records with an inconclusive call do not appear. Active and inactive are the calls of the source. The call rests on the fitted dose curve; in most records, active means well fitted cell-killing curve with a large enough effect in the repeat runs; inconclusive means weak or mixed curves, or effect the other way; inactive means flat fitted curve, though single readings scatter.
ENDPOINT: Potency

Any idea what Potency was measured for CNC(=O)c1ccccc1 ? inactive

Any idea what Potency was measured for Cc1cccc(S(=O)(=O)O)c1C ? inactive

Any idea what Potency was measured for O=C(c1ccc(F)cc1)C1CCN(CCn2c(=O)[nH]c3ccccc3c2=O)CC1 ? inactive

Any idea what Potency was measured for CCCCCCOC(=O)c1ccc(O)cc1 ? inactive

Any idea what Potency was measured for O=C(Nc1cccc([N+](=O)[O-])c1)c1cc2ccccc2cc1O ? 6.86 µM (active)

Any idea what Potency was measured for CCCCCCCC[P+](CCCCCCCC)(CCCCCCCC)CCCCCCCC ? 4.3 µM (active)

Any idea what Potency was measured for Cc1onc(-c2c(Cl)cccc2Cl)c1C(=O)N[C@@H]1C(=O)N2[C@@H]1SC(C)(C)[C@@H]2C(=O)O ? inactive

Any idea what Potency was measured for N=C1C=CC(=C(c2ccc(N)cc2)c2ccc(N)cc2)C=C1 ? 9.69 µM (active)

Any idea what Potency was measured for CCCCCOc1ccccc1/C(=C\SC)n1ccnc1 ? inactive

Any idea what Potency was measured for CC(=O)SC[C@@H](Cc1ccccc1)C(=O)NCC(=O)OCc1ccccc1 ? inactive

Turning now to a further record.
Any idea what Potency was measured for Oc1cccc(-c2c3nc(c(-c4cccc(O)c4)c4ccc([nH]4)c(-c4cccc(O)c4)c4nc(c(-c5cccc(O)c5)c5ccc2[nH]5)CC4)C=C3)c1 ? 7.5 µM (active)
